Molecular target: Vasopressin V2 receptor (Rattus norvegicus, UniProt Q00788)
Sequence (Q00788 whole entry): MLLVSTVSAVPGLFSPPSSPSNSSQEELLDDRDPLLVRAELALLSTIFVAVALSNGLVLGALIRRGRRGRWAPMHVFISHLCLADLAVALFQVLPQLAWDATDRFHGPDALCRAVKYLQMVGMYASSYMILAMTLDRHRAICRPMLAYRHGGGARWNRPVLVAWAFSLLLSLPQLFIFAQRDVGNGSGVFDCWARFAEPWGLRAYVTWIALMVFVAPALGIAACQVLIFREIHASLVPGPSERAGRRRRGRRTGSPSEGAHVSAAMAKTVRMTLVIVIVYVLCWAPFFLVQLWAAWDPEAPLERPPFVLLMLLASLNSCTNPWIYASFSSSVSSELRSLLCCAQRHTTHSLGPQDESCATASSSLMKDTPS
Assay: Displacement of [3H]vasopressin from vasopressin V2 receptor in rat kidney tissue
Below, each of the compounds is paired with its reported Ki value.

Task: Tell me measured Ki for CC1(C)[C@@H]2CC[C@@]1(CS(=O)(=O)N1CCC3(C=Cc4ccccc43)CC1)[C@@](O)(CC(=O)O)C2 please.
Result: 29 µM

Task: Tell me measured Ki for Cc1ccccc1N1CCN(S(=O)(=O)C[C@]23CC[C@H](C[C@@H]2NC(=O)[C@@H](N)CCS(C)(=O)=O)C3(C)C)CC1 please.
Result: 0.2 µM

Task: Tell me measured Ki for COc1cc(OC2CCN(Cc3ccc[n+]([O-])c3C)CC2)ccc1C(=O)N1CCC(N2C(=O)OCc3ccccc32)CC1 please.
Result: 9.7 µM

Task: Tell me measured Ki for Cc1ccc(S(=O)(=O)N2CCC3(C=Cc4ccccc43)CC2)cc1 please.
Result: > 40 µM

====

Target: Oxytocin receptor (Homo sapiens)
Sequence (P30559 whole entry): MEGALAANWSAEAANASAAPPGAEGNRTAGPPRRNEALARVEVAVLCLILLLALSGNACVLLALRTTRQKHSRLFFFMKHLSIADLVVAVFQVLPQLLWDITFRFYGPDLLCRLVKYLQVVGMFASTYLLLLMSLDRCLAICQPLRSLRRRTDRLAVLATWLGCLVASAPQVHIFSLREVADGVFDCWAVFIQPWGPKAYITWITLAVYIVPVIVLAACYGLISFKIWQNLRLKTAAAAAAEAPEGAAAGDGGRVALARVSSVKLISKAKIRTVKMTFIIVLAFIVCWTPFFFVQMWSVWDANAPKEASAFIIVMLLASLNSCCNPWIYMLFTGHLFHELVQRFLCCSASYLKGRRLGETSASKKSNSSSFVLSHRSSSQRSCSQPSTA
Assay: Displacement of [3H]-oxytocin from oxytocin receptor in human uterus tissue
Assay type: tissue-based
outcome-measure: Ki (nM)
A number alone suffices; assume nM.

Task: Tell me measured Ki for CC1(C)[C@@H]2CC[C@@]1(CS(=O)(=O)N1CCC3(C=Cc4ccccc43)CC1)[C@@](O)(CC(=O)O)C2 please.
Result: 530

Task: Tell me measured Ki for Cc1ccc(S(=O)(=O)N2CCC3(C=Cc4ccccc43)CC2)cc1 please.
Result: 1000

Task: Tell me measured Ki for COc1ccc(N(Cc2ccc(-c3ccccc3C)cn2)S(=O)(=O)c2cn(C)c(C)n2)cn1 please.
Result: 9.1

Task: Tell me measured Ki for COc1cc(OC2CCN(Cc3ccc[n+]([O-])c3C)CC2)ccc1C(=O)N1CCC(N2C(=O)OCc3ccccc32)CC1 please.
Result: 4.9

Task: Tell me measured Ki for Cc1ccccc1N1CCN(S(=O)(=O)C[C@]23CC[C@H](C[C@@H]2NC(=O)[C@@H](N)CCS(C)(=O)=O)C3(C)C)CC1 please.
Result: 13

Task: Tell me measured Ki for CO/N=C1/C[C@@H](C(=O)NC[C@@H](O)c2ccccc2)N(C(=O)c2ccc(-c3ccccc3C)cc2)C1 please.
Result: 28

====

Biological target: UniProtKB P30518
Sequence (P30518 whole entry): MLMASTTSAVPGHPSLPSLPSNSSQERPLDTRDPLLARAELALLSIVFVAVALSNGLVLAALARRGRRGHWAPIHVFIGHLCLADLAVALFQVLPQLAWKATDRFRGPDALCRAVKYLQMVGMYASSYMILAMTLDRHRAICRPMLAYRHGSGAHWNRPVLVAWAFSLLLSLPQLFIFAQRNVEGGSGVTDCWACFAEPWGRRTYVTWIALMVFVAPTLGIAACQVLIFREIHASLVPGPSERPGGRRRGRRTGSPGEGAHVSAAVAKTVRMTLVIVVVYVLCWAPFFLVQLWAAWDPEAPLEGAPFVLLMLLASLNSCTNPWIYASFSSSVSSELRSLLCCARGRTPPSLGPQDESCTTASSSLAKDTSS
Assay: Displacement of [3H]vasopressin from human vasopressin V2 receptor expressed in CHO cells
Format: cell-based
pKi: −log10 of the molar value.
Below, each of the compounds is paired with its reported pKi value.

Record excerpt, results attached:
INSERT INTO measurements (smiles_structure, meas_value) VALUES
  ('CO/N=C1/C[C@@H](C(=O)NC[C@@H](O)c2ccccc2)N(C(=O)c2ccc(-c3ccccc3C)cc2)C1', '< 5.00'),
  ('CCOCc1nnc(-c2ccc(OCC)c(C)c2)n1-c1ccc(OC)nc1', '< 5.00'),
  ('CCN(Cc1cccnc1)C(=O)c1ccc(Cl)c([C@]2(C)C(=O)N(Cc3ccc(OC)cc3OC)c3ccc(Cl)cc32)c1', '< 6.00');

Task: Tell me measured pKi for COc1ccc(-n2c(C)nnc2-c2ccc(-c3ccccc3OC)cc2)cn1 please.
Result: 6.30
